Hello, the source for this data is paper PMC8002477, in case you need it.

tested on: THP-1 cells; experiment: MTT viability of THP-1 cells (safe concentration); conditions: concentration range of THP-1 cells viability over 80%, 36 h
Recorded THP-1 Cells SC (safe concentration) for the following molecules

Illustrative cases are given below, each with its answer.
• CC1(C)C=Cc2c(ccc3c4c([nH]c23)C(C)(C)[C@@H]2C[C@]35CCCN3C(=O)[C@]2(NC5=O)[C@H]4O)O1 [Compound 12, notoamide R] = 0 to 50 µM
• CC1(C)C=Cc2c(ccc3c2[N+]([O-])=C2C3=CC34NC(=O)C5(CCCN5C3=O)CC4C2(C)C)O1 (stereo not drawn) = 0 to 5 µM
• CC1(C)C=Cc2c(ccc3c2NC(=O)[C@@]32[C@H](O)[C@@]34NC(=O)[C@]5(CCCN5C3=O)C[C@H]4C2(C)C)O1 [Compound 9, sclerotiamide] = 0 to 50 µM
• CC1(C)C=Cc2c(ccc3c2N(O)C(=O)C32C(O)C34NC(=O)C5(CCCN5C3=O)CC4C2(C)C)O1 (stereo not drawn) [Compound 10, notoamide H] = 0 to 50 µM

Asked: Lab note: need THP-1 Cells SC (safe concentration) for CC(=O)OC1C23NC(=O)C4(CCCN4C2=O)CC3C(C)(C)C12C(=O)Nc1c2ccc2c1C=CC(C)(C)O2 (stereo not drawn) on THP-1 cells, anyone have it?
Given back: 0 to 40 µM

Asked: Request body: readout THP-1 Cells SC (safe concentration), system THP-1 cells, query CC1(C)C=Cc2c(ccc3c2NC24N5C(=O)C6(O)CCCN6C(=O)C5CC32OC(CO)C4(C)C)O1 (stereo not drawn) . Return the value.
Given back: 0 to 50 µM
